Where these numbers come from: ChEMBL document CHEMBL1144138

System: HT-29
method-summary: Cytotoxicity against human HT-29 cells after 6 days by MTT assay
Type: functional
test-context: HT-29, 144 h, read-out: ED50 (the source's name)
Lab note - cut at 3 µg/mL for EC50: True if strictly below, False if not.

Hi there! Is EC50 for CC(=O)OC(C)(C)C1CC/C(C)=C/CC/C(C)=C/CCC2=C[C@@H]1OC2=O (some centres undefined) [BRASSICOLIDE ACETATE] below 3 µg/mL, do you know?
True

###

Overview of recorded EC50 for various compounds
Test system: KB
method-summary: Cytotoxicity against human KB cells after 3 days by MTT assay
Format: functional
test-context: 72 h, read-out: ED50 (the source's name)
Provide the reading as a plain figure in µg/mL.

CC(=O)OC(C)(C)C1CC/C(C)=C/CC/C(C)=C/CCC2=C[C@@H]1OC2=O (some centres undefined) [BRASSICOLIDE ACETATE]: 0.72
C/C1=C\CCC2=C[C@H](OC2=O)C(C(C)(C)O)CC/C(C)=C/CC1 (some centres undefined) [BRASSICOLIDE]: 2.4
C/C1=C\CC/C(C)=C/CC(C(C)(C)O)CC/C(C)=C/CC1 (centres undefined): 1.81
C/C1=C\CC/C(C)=C/[C@H](O)C(C(C)(C)O)CC/C(C)=C/CC1 (some centres undefined): 0.23
C=C(C)[C@H]1C/C=C(\C)CC/C=C(\C)CC/C=C(\C)CC1: 3.73

Suppose we examine the compound C=C(C)[C@@H]1CC/C(C)=C/CC/C(C)=C/CC[C@]2(C)O[C@H]2C1 ; what EC50 value has been reported?
3.41

###

Tested on: HT-29
method-summary: Cytotoxicity against human HT-29 cells after 6 days by MTT assay
Format: functional
test-context: HT-29, 144 h, read-out: ED50 (the source's name)
Overview of recorded EC50 for various compounds
Provide the reading as a plain figure in µg/mL.

Here is how some compounds turned out for EC50.
C/C1=C\CCC2=C[C@H](OC2=O)C(C(C)(C)O)CC/C(C)=C/CC1 (stereo partly drawn) [BRASSICOLIDE]: 5.81
C/C1=C\CC/C(C)=C/CC(C(C)(C)O)CC/C(C)=C/CC1 (stereo not drawn): 3.01
C=C(C)[C@H]1C/C=C(\C)CC/C=C(\C)CC/C=C(\C)CC1: 3.42
C/C1=C\CC/C(C)=C/[C@H](O)C(C(C)(C)O)CC/C(C)=C/CC1 (stereo partly drawn): 1.02

What EC50 appears in the records for this compound with HT-29? C=C(C)[C@@H]1CC/C(C)=C/CC/C(C)=C/CC[C@]2(C)O[C@H]2C1
2.72

###

Overview of recorded EC50 for various compounds
Test system: KB
method-summary: Cytotoxicity against human KB cells after 3 days by MTT assay
Assay type: functional
test-context: 72 h, read-out: ED50 (the source's name)

Here is how some compounds turned out for EC50.
C=C(C)C1CC[C@@]2(C)CCC[C@@](C)(OC(C)=O)[C@@H]2C1 (stereo partly drawn): > 50 µg/mL
C=C(C)C1CC[C@@]2(C)CCC[C@@](C)(O)[C@@H]2C1 (stereo partly drawn): > 50 µg/mL

Kindly consider the entry below.
Suppose we examine the compound C=C[C@]1(C)CC[C@H](C(=C)C)C[C@@H]1C(=C)C ; what EC50 value has been reported?
> 50 µg/mL
